Reference source for all entries: patent US20220104493A1

Collected pest or weed control at 500 g/ha values appear next to each entry.
- Tested on: Euphorbia heterophylla (EPHHL)
- Procedure Text: Post-emergence efficacy, Method A
- Assay type: in vivo
- Condition Parameters: 500 g/Ha, 100=total damage to plant, 0=no damage, evaluated after 7 and 14 days, read-out: Control of weed species after post-emergence application, EPHHL
Output spec: scalar in %, unitless text.

Compound | Property Name | Units Label | Result Number
O=S(=O)([O-])CCC[n+]1ccc(-c2cnon2)cc1 [Compound A18] | pest or weed control at 500 g/ha | % | 50
O=S(=O)([O-])C[n+]1ccc(-c2nc(C(F)(F)F)ns2)cc1 [Compound A85] | pest or weed control at 500 g/ha | % | 100
O=S(=O)([O-])CC[n+]1ccc(-c2nc(C(F)(F)F)co2)cc1 [Compound A46] | pest or weed control at 500 g/ha | % | 0
Nc1nnc(-c2cc[n+](CC(=O)O)cc2)s1 [Compound A94] | pest or weed control at 500 g/ha | % | 30
O=C(O)C[n+]1ccc(-c2csnn2)cc1 [Compound A53] | pest or weed control at 500 g/ha | % | 20

Q: Provide the documented pest or weed control at 500 g/ha with Euphorbia heterophylla (EPHHL) as the system for O=C(O)C[n+]1ccc(-c2nccs2)cc1 [Compound A24]
A: 40

Q: Provide the documented pest or weed control at 500 g/ha with Euphorbia heterophylla (EPHHL) as the system for O=C(O)C[n+]1ccc(-c2ncsn2)cc1 [Compound A83]
A: 50

Q: Provide the documented pest or weed control at 500 g/ha with Euphorbia heterophylla (EPHHL) as the system for N#Cc1csc(-c2cc[n+](CCC(=O)O)cc2)n1 [Compound A88]
A: 90

Q: Provide the documented pest or weed control at 500 g/ha with Euphorbia heterophylla (EPHHL) as the system for O=C(O)CC[n+]1ccc(-c2ncns2)cc1 [Compound A7]
A: 80

Q: Provide the documented pest or weed control at 500 g/ha with Euphorbia heterophylla (EPHHL) as the system for O=C(O)C[n+]1ccc(-c2ncno2)cc1 [Compound A13]
A: 70

* * *

- System: Amaranthus palmeri (AMAPA)
- Procedure Text: Post-emergence efficacy, Method A
- Assay type: in vivo
- Condition Parameters: read-out: Control of weed species after post-emergence application, AMAPA
Collected pest or weed control at 500 g/ha values appear next to each entry.
Output spec: scalar in %, unitless text.

See these solved cases before continuing.
Compound | pest or weed control at 500 g/ha / %
CCOP(=O)([O-])C[n+]1ccc(-c2ncns2)cc1 | 70
CP(=O)([O-])C[n+]1ccc(-c2ncns2)cc1 | 90
CCOP(C)(=O)C[n+]1ccc(-c2ncns2)cc1 (stereo not shown) | 60

Please look at the following compound next.
Q: Could you tell me which pest or weed control at 500 g/ha is on file for COP(=O)([O-])C[n+]1ccc(-c2ncns2)cc1 ?
A: 90

* * *

- Test system: Ipomoea hederacea (IPOHE)
- Procedure Text: Post-emergence efficacy, Method A
- Assay type: in vivo
- Condition Parameters: 500 g/Ha, 100=total damage to plant, 0=no damage, evaluated after 7 and 14 days, read-out: Control of weed species after post-emergence application, IPOHE
Property Name: pest or weed control at 500 g/ha (%)
Output spec: scalar in %, unitless text.

See these solved cases before continuing.
Compound | Result Number
O=C(O)C[n+]1ccc(-c2ccsn2)cc1 | 0
COC(=O)C[n+]1ccc(-c2cnns2)cc1 | 10
O=C(O)CC[n+]1ccc(-c2nc(C(F)(F)F)ns2)c(Br)c1 [Compound A79, acetate] | 40
O=S(=O)([O-])CC[n+]1ccc(-c2ncco2)cc1 | 20
Nc1nnc(-c2cc[n+](CC(=O)O)cc2)s1 | 10

Q: Could you tell me which pest or weed control at 500 g/ha is on file for CS(=O)(=O)c1c[n+](CCC(=O)O)ccc1-c1ncns1 ?
A: 30

Q: Could you tell me which pest or weed control at 500 g/ha is on file for O=C(O)CC[n+]1ccc(-c2ncno2)cc1 ?
A: 20

Q: Could you tell me which pest or weed control at 500 g/ha is on file for O=C(O)C[n+]1ccc(-c2ncns2)cc1 ?
A: 80

Q: Could you tell me which pest or weed control at 500 g/ha is on file for Cc1noc(-c2cc[n+](CCC(=O)O)cc2)n1 ?
A: 30

Q: Could you tell me which pest or weed control at 500 g/ha is on file for O=S(=O)([O-])CCC[n+]1ccc(-c2nnco2)cc1 ?
A: 20

* * *

- System: Ipomoea hederacea (IPOHE)
- Procedure Text: Post-emergence efficacy, Method A
- Format: in vivo
- Condition Parameters: 500 g/Ha, 100=total damage to plant, 0=no damage, evaluated after 7 and 14 days, read-out: Control of weed species after post-emergence application, IPOHE
Property Name: pest or weed control at 500 g/ha (%)
Output spec: scalar in %, unitless text.

See these solved cases before continuing.
Compound | Units Label | pest or weed control at 500 g/ha
O=S(=O)([O-])CC[n+]1ccc(-c2nc(C(F)(F)F)co2)cc1 | % | 0
O=C(O)C[n+]1ccc(-c2nc(C(F)(F)F)ns2)cc1 [Compound A1, 2,2,2-trifluoroacetate] | % | 40
O=C(O)C[n+]1ccc(-c2nccs2)cc1 | % | 20
O=S(=O)([O-])OCC[n+]1ccc(-c2csnn2)cc1 | % | 20

Please look at the following compound next.
Q: Could you tell me which pest or weed control at 500 g/ha is on file for Cn1nnnc1-c1cc[n+](CS(=O)(=O)[O-])cc1 ?
A: 0

* * *

- Test system: Eleusine indica (ELEIN)
- Procedure Text: Post-emergence efficacy, Method A
- Format: in vivo
- Condition Parameters: 500 g/Ha, 100=total damage to plant, 0=no damage, evaluated after 7 and 14 days, read-out: Control of weed species after post-emergence application, ELEIN
Property Name: pest or weed control at 500 g/ha
Value and unit, in that order.

See these solved cases before continuing.
Molecule | Measured Target | pest or weed control at 500 g/ha
CNC(=O)c1cc(-c2cc[n+](CCCS(=O)(=O)[O-])cc2)on1 [Compound A52] | Eleusine indica (ELEIN) | 10%
CCOC(=O)C[n+]1ccc(-c2nncs2)cc1 [Compound A49] | Eleusine indica (ELEIN) | 20%
O=C(O)C[n+]1ccc(-c2ncsn2)cc1 [Compound A83] | Eleusine indica (ELEIN) | 10%
O=S(=O)([O-])CCC[n+]1ccc(-c2noc(C(F)(F)F)n2)cc1 [Compound A15] | Eleusine indica (ELEIN) | 10%
CC([n+]1ccc(-c2ncns2)cc1)S(=O)(=O)[O-] (stereo not shown) [Compound A11] | Eleusine indica (ELEIN) | 90%
Cn1nnnc1-c1cc[n+](CS(=O)(=O)[O-])cc1 [Compound A57] | Eleusine indica (ELEIN) | 20%
Cn1nnc(-c2cc[n+](CS(=O)(=O)[O-])cc2)n1 [Compound A35] | Eleusine indica (ELEIN) | 20%
O=C(O)C[n+]1ccc(-c2ccns2)cc1 [Compound A86] | Eleusine indica (ELEIN) | 20%
O=S(=O)([O-])CC[n+]1ccc(-c2nc(C(F)(F)F)cs2)cc1 [Compound A21] | Eleusine indica (ELEIN) | 80%

Q: Could you tell me which pest or weed control at 500 g/ha is on file for O=C(O)CC[n+]1ccc(-c2nc(C(F)(F)F)ns2)c(Br)c1 [Compound A79, acetate] ?
A: 90%

* * *

- Test system: Eleusine indica (ELEIN)
- Procedure Text: Post-emergence efficacy, Method A
- Type: in vivo
- Condition Parameters: 500 g/Ha, 100=total damage to plant, 0=no damage, evaluated after 7 and 14 days, read-out: Control of weed species after post-emergence application, ELEIN
Property Name: pest or weed control at 500 g/ha
Value and unit, in that order.

See these solved cases before continuing.
Compound | pest or weed control at 500 g/ha
O=S(=O)([O-])C[n+]1ccc(-c2ncco2)cc1 [Compound A23] | 0%
Cn1nnnc1-c1cc[n+](CC(=O)O)cc1 [Compound A33] | 20%
O=C(O)CC[n+]1ccc(-c2nccs2)cc1 [Compound A25] | 10%

Q: Could you tell me which pest or weed control at 500 g/ha is on file for Cc1nnc(-c2cc[n+](CC(=O)O)cc2)s1 [Compound A95] ?
A: 60%

Q: Could you tell me which pest or weed control at 500 g/ha is on file for Cn1nccc1-c1cc[n+](CCOS(=O)(=O)[O-])cc1 [Compound A74] ?
A: 20%

Q: Could you tell me which pest or weed control at 500 g/ha is on file for O=C(O)C[n+]1ccc(-c2ccsn2)cc1 [Compound A81] ?
A: 40%

* * *

- System: Ipomoea hederacea (IPOHE)
- Procedure Text: Post-emergence efficacy, Method A
- Assay type: in vivo
- Condition Parameters: 500 g/Ha, 100=total damage to plant, 0=no damage, evaluated after 7 and 14 days, read-out: Control of weed species after post-emergence application, IPOHE
Property Name: pest or weed control at 500 g/ha (%)
Output spec: scalar in %, unitless text.

See these solved cases before continuing.
Compound | Result Number
O=P([O-])(O)C[n+]1ccc(-c2ncns2)cc1 [Compound A32] | 0
COC(=O)C[n+]1ccc(-c2nnco2)cc1 [Compound A16] | 20
O=C(O)CC[n+]1ccc(-c2ncns2)cc1 [Compound A7] | 30
O=C(O)CC[n+]1ccc(-c2nccs2)cc1 [Compound A25] | 10
CS(=O)(=O)[N-]C(=O)C[n+]1ccc(-c2ncns2)cc1 [Compound A29] | 90

Q: Could you tell me which pest or weed control at 500 g/ha is on file for CC(C(=O)O)[n+]1ccc(-c2ncns2)cc1 (stereo not shown) [Compound A28] ?
A: 70

Q: Could you tell me which pest or weed control at 500 g/ha is on file for Cc1nnc(-c2cc[n+](CC(=O)O)cc2)s1 [Compound A95] ?
A: 10
